target: recombinant MbtI (Mycobacterium tuberculosis, UniProt P9WFX1); assay: MbtI enzymatic (fluorimetric) inhibition assay; assay type: biochemical; details: standard assay, 5 mM MgCl2; read-out: IC50
Sequence (P9WFX1 whole entry): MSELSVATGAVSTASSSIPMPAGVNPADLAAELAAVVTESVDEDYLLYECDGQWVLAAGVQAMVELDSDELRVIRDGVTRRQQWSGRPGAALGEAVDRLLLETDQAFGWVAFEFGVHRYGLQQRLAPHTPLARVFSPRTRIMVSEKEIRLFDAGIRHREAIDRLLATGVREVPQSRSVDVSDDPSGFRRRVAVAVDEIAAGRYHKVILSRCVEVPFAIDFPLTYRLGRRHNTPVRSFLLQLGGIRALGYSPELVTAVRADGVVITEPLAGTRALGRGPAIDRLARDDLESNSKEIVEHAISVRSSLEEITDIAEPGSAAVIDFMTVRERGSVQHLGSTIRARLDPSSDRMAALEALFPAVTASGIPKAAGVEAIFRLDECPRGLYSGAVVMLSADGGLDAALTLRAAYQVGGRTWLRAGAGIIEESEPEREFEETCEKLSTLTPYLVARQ
QUANTITY: pIC50
Note on units: pIC50 is unitless, being -log10 of a concentration expressed in mol/L.

Please look at this compound and report its pIC50: N#Cc1cccc(-c2ccc(C(N)=O)o2)c1 [Compound 11, 5-(3-Cyanophenyl)furan-2-carboxamide] 4.76

----------
molecular target: recombinant MbtI (Mycobacterium tuberculosis); test: MbtI enzymatic (fluorimetric) inhibition assay; format: biochemical; conditions: 25 mM MgCl2; Figure 5B, x-axis [10] (μM); read-out: IC50 at 25 mM MgCl2
QUANTITY: IC50 (µM)
Please respond with the number in µM and leave the unit unwritten.

For N#Cc1cccc(-c2ccc(C(=O)O)o2)c1 , write its IC50. 14.2
